Entry source: ChEMBL document CHEMBL2176880

measurementTarget: Metabotropic glutamate receptor 2 (Homo sapiens)
Sequence (Q14416 whole entry): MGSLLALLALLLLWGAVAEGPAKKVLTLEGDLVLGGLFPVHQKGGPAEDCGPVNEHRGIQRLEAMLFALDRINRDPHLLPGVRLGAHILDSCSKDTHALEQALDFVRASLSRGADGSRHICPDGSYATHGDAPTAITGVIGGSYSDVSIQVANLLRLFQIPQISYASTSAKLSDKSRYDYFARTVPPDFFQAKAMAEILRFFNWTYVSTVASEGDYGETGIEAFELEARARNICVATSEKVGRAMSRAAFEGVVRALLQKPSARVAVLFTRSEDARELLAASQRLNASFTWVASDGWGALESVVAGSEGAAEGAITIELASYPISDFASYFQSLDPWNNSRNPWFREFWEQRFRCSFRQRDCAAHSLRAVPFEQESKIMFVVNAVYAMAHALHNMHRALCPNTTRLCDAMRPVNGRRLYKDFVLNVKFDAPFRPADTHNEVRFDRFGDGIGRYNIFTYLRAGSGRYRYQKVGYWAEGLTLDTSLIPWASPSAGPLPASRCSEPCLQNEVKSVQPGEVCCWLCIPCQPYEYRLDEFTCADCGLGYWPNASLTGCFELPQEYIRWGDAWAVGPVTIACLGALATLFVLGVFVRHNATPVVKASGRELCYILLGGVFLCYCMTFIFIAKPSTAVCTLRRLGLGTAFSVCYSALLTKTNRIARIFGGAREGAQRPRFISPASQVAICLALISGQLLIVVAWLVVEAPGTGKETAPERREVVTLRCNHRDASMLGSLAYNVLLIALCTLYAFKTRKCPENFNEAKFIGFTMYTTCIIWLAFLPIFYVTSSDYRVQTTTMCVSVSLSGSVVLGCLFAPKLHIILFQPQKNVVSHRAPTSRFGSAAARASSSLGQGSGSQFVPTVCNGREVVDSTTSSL
testDescription: Positive allosteric modulator activity at human mGlu2R expressed in CHO cells incubated for 30 mins by [35S]GTPgammaS binding assay
A collection of molecules and their measured EC50
Supply the numeric figure in nM, leaving out any unit text.

I'm curious: which EC50 was measured for "CC(C)(C)c1nnc2c(C#N)c(N3CCC(c4ccccc4)CC3)ccn12" tested on Metabotropic glutamate receptor 2 (Homo sapiens)?
1230

I'm curious: which EC50 was measured for FC(F)(F)c1c(N2CCC(c3ccccc3)C2)ccn2c(CC3CC3)nnc12 (racemic) tested on Metabotropic glutamate receptor 2 (Homo sapiens)?
1230

I'm curious: which EC50 was measured for "FC(F)(F)c1c(N2CCC(c3cccnc3)CC2)ccn2c(CC3CC3)nnc12" tested on Metabotropic glutamate receptor 2 (Homo sapiens)?
519

I'm curious: which EC50 was measured for "FC(F)(F)Cc1nnc2c(Cl)c(N3CCC(c4ccccc4)CC3)ccn12" tested on Metabotropic glutamate receptor 2 (Homo sapiens)?
55

I'm curious: which EC50 was measured for "FC(F)(F)c1c(N2CCc3ccccc3C2)ccn2c(CC3CC3)nnc12" tested on Metabotropic glutamate receptor 2 (Homo sapiens)?
149
